# TARGET ENTITY: Human MGAT-2 (Homo sapiens (Human))
# MEASUREMENT NOTES: MGAT LCMS Assay (human MGAT-2)
# Type: biochemical
# CONDITION DESCRIPTION: human MGAT-2 membranes expressed in Sf9 cells; 2-oleoylglycerol and oleoyl-Coenzyme A; read-out: h-MGAT2 IC50 (nM) LCMS Assay
OUTCOME MEASURE: IC50 (nM)

{"columns": ["COMPOUND", "TARGET ENTITY", "UNITS LABEL", "MEASUREMENT"],
 "data": [
  ["O=C1NC(c2ccc(OCCCC(F)(F)F)cc2)(C(F)(F)F)CC(c2ccc3ccccc3c2)=C1c1nn[nH]n1 (stereo not shown)", "Human MGAT-2 (Homo sapiens (Human))", "nM", 11],
  ["Cc1ccc(C2=C(NC(=O)c3cnccn3)C(=O)NC(c3ccc(OCCCC(F)(F)F)cc3)(C(F)(F)F)C2)cc1 (stereo not shown)", "Human MGAT-2 (Homo sapiens (Human))", "nM", 247],
  ["Cc1ccc(C2=C(C(O)Nc3ccccc3)C(=O)NC(c3ccc(OCCCC(F)(F)F)cc3)(C(F)(F)F)C2)cc1 (stereo not shown)", "Human MGAT-2 (Homo sapiens (Human))", "nM", 40],
  ["Cc1ccc(C2=C(NC(=O)[C@@H](C)O)C(=O)NC(c3ccc(OCCCC(F)(F)F)cc3)(C(F)(F)F)C2)cc1 (stereo partly shown)", "Human MGAT-2 (Homo sapiens (Human))", "nM", 411],
  ["COc1ccc(C2=C(C#N)C(=O)NC(c3ccc(OCCCC(F)(F)F)cc3)(C(F)(F)F)C2)c(F)c1 (stereo not shown) [Example 81]", "Human MGAT-2 (Homo sapiens (Human))", "nM", 4],
  ["Cc1ccc(C2=C(c3nn[nH]n3)C(=O)NC(c3ccc(OCCCCC(F)(F)F)cc3F)(C(F)(F)F)C2)cc1 (stereo not shown)", "Human MGAT-2 (Homo sapiens (Human))", "nM", 2],
  ["CCCCCCc1cnc(C2(C)CC(c3ccc(C)cc3)=C(C#N)C(=O)N2)o1 (stereo not shown)", "Human MGAT-2 (Homo sapiens (Human))", "nM", 189]
]}

----------
# TARGET ENTITY: Human MGAT-2 (Homo sapiens (Human), UniProt Q3SYC2)
# Sequence (Q3SYC2 whole entry): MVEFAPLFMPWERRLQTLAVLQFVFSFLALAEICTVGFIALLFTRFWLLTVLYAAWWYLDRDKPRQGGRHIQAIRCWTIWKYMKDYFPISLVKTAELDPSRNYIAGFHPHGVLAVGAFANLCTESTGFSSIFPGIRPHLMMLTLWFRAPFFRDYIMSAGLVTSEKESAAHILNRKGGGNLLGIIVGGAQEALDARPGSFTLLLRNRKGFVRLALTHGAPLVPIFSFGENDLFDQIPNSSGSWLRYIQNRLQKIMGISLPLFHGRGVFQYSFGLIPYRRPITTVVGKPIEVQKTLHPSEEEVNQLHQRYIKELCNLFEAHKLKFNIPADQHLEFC
# MEASUREMENT NOTES: MGAT LCMS Assay (human MGAT-2);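 note: diolein product quantified by LC/MS with positive APCI, expressed as peak area ratio versus an internal standard, and this ratio used to derive IC50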
# Type: biochemical
# CONDITION DESCRIPTION: human MGAT-2 membranes expressed in Sf9 cells; 2-oleoylglycerol and oleoyl-Coenzyme A; read-out: h-MGAT2 IC50 (nM) LCMS Assay

{"columns": ["MOLECULE", "IC50 [nM]"],
 "data": [
  ["COc1ccc(C2(C(F)(F)F)CC(c3ccc(C)cc3)=C(C(=O)Nc3ccc(F)cc3)C(=O)N2)cc1 (centres unmarked)", 15],
  ["O=C1NC(c2ccc(OCCCC(F)(F)F)cc2)(C(F)(F)F)CC(c2ccc(Cl)cc2)=C1c1nn[nH]n1 (centres unmarked)", 108],
  ["Cc1ccc(C2=C(C(=O)Nc3ccc(F)cc3)C(=O)NC(c3ccc(Oc4ccncn4)cc3)(C(F)(F)F)C2)cc1 (centres unmarked)", 64],
  ["CCCCCCCn1ccc(C2(C)CC(c3ccc(C)cc3)=C(C#N)C(=O)N2)n1 (centres unmarked)", 39],
  ["CCCOc1ccc(C2(C(F)(F)F)CC(c3ccc(C)cc3)=C(NC(=O)CS(C)(=O)=O)C(=O)N2)cc1 (centres unmarked)", 105],
  ["CCOc1ccc(C2=C(C#N)C(=O)NC(c3ccc(OCCCC(F)(F)F)cc3)(C(F)(F)F)C2)cc1Cl (centres unmarked) [Example 263]", 103],
  ["Cc1ccc(C2=C(c3nn[nH]n3)C(=O)NC(c3ccc(OCCC4CC4)cc3)(C(F)(F)F)C2)cc1 (centres unmarked)", 4],
  ["Cc1ccc(C2=C(c3cn[nH]n3)C(=O)NC(C#CCCC(C)C)(C(F)(F)F)C2)cc1 (centres unmarked)", 16],
  ["O=C1NC(c2ccc(OCCCC(F)(F)F)cc2F)(C(F)(F)F)CC(c2ccc(CC3CC3)cc2)=C1c1nn[nH]n1 (centres unmarked)", 2],
  ["Cc1ccc(C2=C(NC(=O)n3ncnn3)C(=O)NC(c3ccc(OCCCC(F)(F)F)cc3)(C(F)(F)F)C2)cc1 (centres unmarked)", 433],
  ["CCOc1ccc(C2=C(c3nn[nH]n3)C(=O)NC(c3ccc(OCCCCCC(F)(F)F)c(F)c3)(C(F)(F)F)C2)cc1 (centres unmarked)", 94],
  ["O=C1NC(c2ccc(OCCCCCC(F)(F)F)c(F)c2)(C(F)(F)F)CC(c2ccc(CC(F)(F)F)cc2)=C1c1nn[nH]n1 (centres unmarked)", 3],
  ["COc1ccc(NC(=O)C2=C(c3ccc(C)cc3)C(F)(F)C(c3ccc(OCCC(F)(F)F)cc3)(C(F)(F)F)NC2=O)cc1 (centres unmarked)", 127],
  ["CCOc1ccc(C2=C(c3nn[nH]n3)C(=O)NC(c3ccc(OCCCCCC(F)(F)F)cc3F)(C(F)(F)F)C2)cc1 (centres unmarked)", 3]
]}
